B1: Lysine-specific demethylase 2B, residues 656 to 722; numbered along this chain, Q8NHM5 (parent)
chain: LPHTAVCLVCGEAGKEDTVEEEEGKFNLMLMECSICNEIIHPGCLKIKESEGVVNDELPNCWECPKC

Variants of: B1
Assay: abundance fitness (aPCA) (normalised: wild type 0, dead -1); higher = more abundant; growth selection in yeast, the domain comes from the species named
Details: Homo sapiens
OBSERVED PROPERTY: abundance fitness
# print the numeric value only

> print(dat)
   mutations  observed.property  reading
1       I40V  abundance fitness    0.215
2       K15I  abundance fitness   -0.305
3       E32I  abundance fitness   -0.072
4       C61N  abundance fitness   -0.675
5       E22S  abundance fitness    -0.01

Respond only with abundance fitness recorded for `M31S` -0.446

Respond only with abundance fitness recorded for `S34T` 0.082

Respond only with abundance fitness recorded for `P2L` 0.807

Respond only with abundance fitness recorded for `M29R` 0.278

Respond only with abundance fitness recorded for `I40T` 0.126
